# System: MCF7
# measurement description: Growth inhibition of human MCF7 cells after 48 hrs by MTT assay
# Type: functional
# stated conditions: MCF7, 48 h
Measured GI50 of individual entries

compound | unit symbol | GI50
Cn1cc(C2CC(c3ccc(Cl)cc3)=NN2C(=O)c2cccnc2)c2cc(Br)ccc21 (stereo not given) | µM | 8.1
COc1cccc(C2=NN(C(=O)c3cccnc3)C(c3cn(C)c4ccc(OC)cc34)C2)c1 (stereo not given) | µM | 0.81
COc1ccc2c(c1)c(C1CC(c3ccc(F)cc3)=NN1C(=O)c1ccc(OC)nc1)cn2C (stereo not given) | µM | 0.48
Cn1cc(C2CC(c3ccc(F)cc3)=NN2C(=O)c2cccnc2)c2cc(Br)ccc21 (stereo not given) | µM | 0.48
COc1ccc2c(c1)c(C1CC(c3ccccc3)=NN1C(=O)c1cccnc1)cn2C (stereo not given) | µM | 1.16

----------
# measurement description: Selectivity index, ratio of CC50 for HEK293T cells to GI50 for human A549 cells
# Type: toxicity
# stated conditions: HEK293T cells and A549 cells, read-out: Selectivity Index
value type: selectivity ratio

compound | readout value
COc1cccc(C2=NN(C(=O)c3ccc(C)nc3)C(c3cn(C)c4ccc(OC)cc34)C2)c1 (stereo unspecified) | 3 to 10

----------
# measurement description: Selectivity index, ratio of CC50 for HEK293T cells to GI50 for human HeLa cells
# Type: toxicity
# stated conditions: HEK293T cells and HeLa cells, read-out: Selectivity Index

compound | selectivity ratio
COc1cccc(C2=NN(C(=O)c3ccc(C)nc3)C(c3cn(C)c4ccc(OC)cc34)C2)c1 (stereo unspecified) | 3 to 10

----------
Measured GI50 of individual entries
# System: MCF7
# measurement description: Growth inhibition of human MCF7 cells after 48 hrs by MTT assay
# Type: functional
# stated conditions: MCF7, 48 h

compound | rel | GI50, µM
COc1cc(C2=NN(C(=O)c3cccnc3)C(c3cn(C)c4ccc(Br)cc34)C2)cc(OC)c1OC (stereo not given) | > | 10
COc1ccc(/C=C\c2cc(OC)c(OC)c(OC)c2)cc1O [COMBRETASTATIN A4] | = | 0.14
Cn1cc(C2CC(c3ccccc3)=NN2C(=O)c2ccc(Cl)nc2)c2ccccc21 (stereo not given) | = | 9.25
Cn1cc(C2CC(c3ccccc3)=NN2C(=O)c2ccncc2)c2ccccc21 (stereo not given) | = | 1.11
Cn1cc(C2CC(c3ccccc3)=NN2C(=O)c2cccnc2)c2ccccc21 (stereo not given) | = | 7.2

----------
Measured GI50 of individual entries
# System: MCF7
# measurement description: Growth inhibition of human MCF7 cells after 48 hrs by MTT assay
# Type: functional
# stated conditions: MCF7, 48 h

molecule | tested system | rel | GI50, µM
COc1cccc(C2=NN(C(=O)c3ccc(C)nc3)C(c3cn(C)c4ccc(OC)cc34)C2)c1 (stereo not given) | MCF7 | = | 0.09
COc1ccc2c(c1)c(C1CC(c3ccc(Br)cc3)=NN1C(=O)c1ccc(OC)nc1)cn2C (stereo not given) | MCF7 | = | 6.96
Cn1cc(C2CC(c3ccccc3)=NN2C(=O)c2cccnc2Cl)c2ccccc21 (stereo not given) | MCF7 | > | 10
Cn1cc(C2CC(c3ccccc3)=NN2C(=O)c2cccnc2)c2cc(Br)ccc21 (stereo not given) | MCF7 | = | 1.52
COc1ccc(C(=O)N2N=C(c3ccccc3)CC2c2cn(C)c3ccccc23)cn1 (stereo not given) | MCF7 | = | 4.31

Taken from ChEMBL document CHEMBL4270573.
